Reported TGI by item:
tested on: TK-10 renal; assay: NCI tumour cell line growth inhibition, 48 h
// units = µM; emit number, no label

O=C(Nc1ccc(-c2nc3cc4ccccc4cc3[nH]2)cc1)c1cccc(Br)c1 : 11.3
Brc1cccc(/C=C/CN2CCN(CCOC(c3ccccc3)c3ccccc3)CC2)c1 : 33.9
COc1cc2oc(=O)cc(C)c2cc1[N+](=O)[O-] : 83.6

Shifting focus to the compound that follows.
Entry O=c1c2ccccc2nc2n1NC(c1c(Cl)cccc1Cl)N2c1cccc(Cl)c1 (stereo not drawn) : reported TGI = ?
21.8

====

tested on: SW-620 colon; assay: NCI tumour cell line growth inhibition, 48 h
Reported GI50 by item:

Study these solved cases before continuing.
COc1cccc(-c2nn(-c3ccccc3)cc2-c2ccnc(NCCNS(=O)(=O)c3ccc(Cl)cc3)c2)c1 : 5.44 µM
COc1ccc(C(=O)Cn2c(C(=O)c3ccc(OC)cc3)nc3ccccc32)cc1 : 0.816 µM
C=C1C(=O)O[C@@H]2C[C@@H]1CC[C@]1(C)O[C@H]1CC[C@@]1(C)O[C@@H]1CC[C@@]2(C)O : 29.2 µM

Entry `CN(C)CCNC(=O)c1ccc(Nc2nc3ccccc3c3occc23)cc1` : reported GI50 = ?
5.96 µM

Entry `CC(C)(C)[OH+][O-].[O-]c1ccc(Cl)cc1C=Nc1ccc(Cl)cc1[O-].[O]=[V]` : reported GI50 = ?
19.6 µM
